The measured values listed here are drawn from BigSolDB 2.1.

conditions: in methyl acetate, 323.15 K
experimentalReadout: solubility (mole fraction)
I'd appreciate a reply containing only the number, no unit.

So, "O=C(c1ccc(F)cc1)c1ccc(F)cc1" ? Its solubility (mole fraction) was 0.238

###

conditions: in acetonitrile, 293.15 K
experimentalReadout: solubility (mole fraction)
Response field accepts a number only; no unit should be typed.

Data point: "O=C(c1ccc(F)cc1)c1ccc(F)cc1" ; solubility (mole fraction) = 0.03

###

details: in methanol, 333.15 K
experimentalReadout: solubility (mole fraction)
Just the number, please.

For record "O=C(c1ccc(F)cc1)c1ccc(F)cc1" the listed solubility (mole fraction) is 0.0297

###

details: in isobutanol, 328.15 K
experimentalReadout: solubility (mole fraction)
Reply with the value as a number alone.

Input "O=C(c1ccc(F)cc1)c1ccc(F)cc1" . Output solubility (mole fraction): 0.0511

###

settings: in n-propanol, 333.15 K
experimentalReadout: solubility (mole fraction)
Just the number.

Noted for "O=C(c1ccc(F)cc1)c1ccc(F)cc1" : its solubility (mole fraction) reads 0.0576

###

details: in methyl acetate, 318.15 K
experimentalReadout: solubility (mole fraction)
Give only the figure.

"O=C(c1ccc(F)cc1)c1ccc(F)cc1" yielded solubility (mole fraction) of 0.205

###

conditions: in n-butanol, 323.15 K
experimentalReadout: solubility (mole fraction)
In your answer, state the number alone without any accompanying words.

# solubility (mole fraction) (molecule: "O=C(c1ccc(F)cc1)c1ccc(F)cc1" ) is 0.0444

###

settings: in ethanol, 303.15 K
experimentalReadout: solubility (mole fraction)
I only need the number, thanks.

For reference, reported solubility (mole fraction) for "O=C(c1ccc(F)cc1)c1ccc(F)cc1" stands at 0.0129

###

conditions: in ethanol, 298.15 K
experimentalReadout: solubility (mole fraction)
Write the number on its own, no unit after it.

What the record says about "O=C(c1ccc(F)cc1)c1ccc(F)cc1" : solubility (mole fraction) is 0.0104

###

details: in n-butanol, 328.15 K
experimentalReadout: solubility (mole fraction)
Number only, no unit.

Measured solubility (mole fraction) of "O=C(c1ccc(F)cc1)c1ccc(F)cc1" : 0.0555

###

settings: in acetonitrile, 323.15 K
experimentalReadout: solubility (mole fraction)
API note: the answer field is a bare number with no unit suffix.

// solubility (mole fraction) value for "O=C(c1ccc(F)cc1)c1ccc(F)cc1" : 0.126

###

details: in ethyl acetate, 308.15 K
experimentalReadout: solubility (mole fraction)
Reply briefly: the number, and no unit.

The reported value for "O=C(c1ccc(F)cc1)c1ccc(F)cc1" in terms of solubility (mole fraction) is 0.155

###

conditions: in ethyl acetate, 303.15 K
experimentalReadout: solubility (mole fraction)
Please give the numeric answer without any surrounding text.

Just so you know, measured solubility (mole fraction) for "O=C(c1ccc(F)cc1)c1ccc(F)cc1" came out at 0.134

###

settings: in isobutanol, 293.15 K
experimentalReadout: solubility (mole fraction)
Write the value as a bare number.

Lab book: solubility (mole fraction) of "O=C(c1ccc(F)cc1)c1ccc(F)cc1" noted as 0.0097

###

conditions: in isopropanol, 318.15 K
experimentalReadout: solubility (mole fraction)
Please give only the number in your answer, with no unit.

Entry "O=C(c1ccc(F)cc1)c1ccc(F)cc1" — recorded solubility (mole fraction) = 0.0276

###

conditions: in ethyl acetate, 318.15 K
experimentalReadout: solubility (mole fraction)
Answer with a bare number; do not write a unit.

The recorded solubility (mole fraction) for "O=C(c1ccc(F)cc1)c1ccc(F)cc1" is 0.203

###

details: in ethanol, 333.15 K
experimentalReadout: solubility (mole fraction)
Answer with a number only.

Measured solubility (mole fraction), "O=C(c1ccc(F)cc1)c1ccc(F)cc1" : 0.0447

###

settings: in n-propanol, 318.15 K
experimentalReadout: solubility (mole fraction)
// return just the number, without any unit appended

Measured solubility (mole fraction) of "O=C(c1ccc(F)cc1)c1ccc(F)cc1" : 0.0305

###

details: in n-propanol, 328.15 K
experimentalReadout: solubility (mole fraction)
No unit in the answer, only the number.

# solubility (mole fraction) of "O=C(c1ccc(F)cc1)c1ccc(F)cc1" = 0.0467

###

settings: in ethyl acetate, 313.15 K
experimentalReadout: solubility (mole fraction)
Answer with a bare number; do not write a unit.

The compound "O=C(c1ccc(F)cc1)c1ccc(F)cc1" showed solubility (mole fraction) equal to 0.177

###

settings: in isopropanol, 323.15 K
experimentalReadout: solubility (mole fraction)
Enter a number only.

Briefly, solubility (mole fraction) measured for "O=C(c1ccc(F)cc1)c1ccc(F)cc1" : 0.0352

###

details: in methyl acetate, 308.15 K
experimentalReadout: solubility (mole fraction)

Consider "O=C(c1ccc(F)cc1)c1ccc(F)cc1" . Its measured solubility (mole fraction) is 0.152

###

details: in acetone, 298.15 K
experimentalReadout: solubility (mole fraction)
I only need the number, thanks.

Field solubility (mole fraction) (entry "O=C(c1ccc(F)cc1)c1ccc(F)cc1" ) reads 0.107

###

settings: in methyl acetate, 333.15 K
experimentalReadout: solubility (mole fraction)

The recorded solubility (mole fraction) for "O=C(c1ccc(F)cc1)c1ccc(F)cc1" is 0.316

###

settings: in isobutanol, 313.15 K
experimentalReadout: solubility (mole fraction)
Answer with a number only.

The compound identified as "O=C(c1ccc(F)cc1)c1ccc(F)cc1" registered its solubility (mole fraction) at 0.0255
